Tested on: Hippocampal Cultures
Test: Neuroprotection from hydrogen peroxide (oxidative stress), propidium iodide assay
Format: cell-based
Settings: Rattus norvegicus; 10 μM hydrogen peroxide, hippocampal cultures, propidium iodide (cell death); read-out: NP from HP PI EC50
Description: Cell cultures: All compounds are screened with dissociated hippocampal cultures derived from embryonic day 18 rats as the primary test system. With this preparation, primary neurons are used to test for toxicity as well as neuroprotection in a highly relevant experimental system to epilepsy. […]
pEC50: −log10 of the molar value.

compound	valueComparator	pEC50
NS(=O)(=O)NCCC(O)c1ccccc1Br (stereo not drawn) [Example 13]	=	5.00
NS(=O)(=O)NCCC(O)c1ccccc1Cl (stereo not drawn) [Example 1]	=	6.00
NS(=O)(=O)N1CCC(O)(c2ccccc2F)CC1 [Example 19]	=	6.00
NS(=O)(=O)NCCC(O)c1ccccc1 (stereo not drawn) [Example 9, N-(3-phenyl-3-hydroxy-propyl)-sulfamide]	<	3.52
NS(=O)(=O)NCC[C@H](O)c1ccccc1Cl [Example 18]	=	9.00
NS(=O)(=O)NCCC(O)c1ccccc1F (stereo not drawn) [Example 6]	=	8.00
